# target_desc: human Cav2.2 (Homo sapiens, UniProt Q00975)
# Construct: IMR32 cells endogenously expressing human Cav2.2; endogenous in cells
# Sequence (Q00975 whole entry): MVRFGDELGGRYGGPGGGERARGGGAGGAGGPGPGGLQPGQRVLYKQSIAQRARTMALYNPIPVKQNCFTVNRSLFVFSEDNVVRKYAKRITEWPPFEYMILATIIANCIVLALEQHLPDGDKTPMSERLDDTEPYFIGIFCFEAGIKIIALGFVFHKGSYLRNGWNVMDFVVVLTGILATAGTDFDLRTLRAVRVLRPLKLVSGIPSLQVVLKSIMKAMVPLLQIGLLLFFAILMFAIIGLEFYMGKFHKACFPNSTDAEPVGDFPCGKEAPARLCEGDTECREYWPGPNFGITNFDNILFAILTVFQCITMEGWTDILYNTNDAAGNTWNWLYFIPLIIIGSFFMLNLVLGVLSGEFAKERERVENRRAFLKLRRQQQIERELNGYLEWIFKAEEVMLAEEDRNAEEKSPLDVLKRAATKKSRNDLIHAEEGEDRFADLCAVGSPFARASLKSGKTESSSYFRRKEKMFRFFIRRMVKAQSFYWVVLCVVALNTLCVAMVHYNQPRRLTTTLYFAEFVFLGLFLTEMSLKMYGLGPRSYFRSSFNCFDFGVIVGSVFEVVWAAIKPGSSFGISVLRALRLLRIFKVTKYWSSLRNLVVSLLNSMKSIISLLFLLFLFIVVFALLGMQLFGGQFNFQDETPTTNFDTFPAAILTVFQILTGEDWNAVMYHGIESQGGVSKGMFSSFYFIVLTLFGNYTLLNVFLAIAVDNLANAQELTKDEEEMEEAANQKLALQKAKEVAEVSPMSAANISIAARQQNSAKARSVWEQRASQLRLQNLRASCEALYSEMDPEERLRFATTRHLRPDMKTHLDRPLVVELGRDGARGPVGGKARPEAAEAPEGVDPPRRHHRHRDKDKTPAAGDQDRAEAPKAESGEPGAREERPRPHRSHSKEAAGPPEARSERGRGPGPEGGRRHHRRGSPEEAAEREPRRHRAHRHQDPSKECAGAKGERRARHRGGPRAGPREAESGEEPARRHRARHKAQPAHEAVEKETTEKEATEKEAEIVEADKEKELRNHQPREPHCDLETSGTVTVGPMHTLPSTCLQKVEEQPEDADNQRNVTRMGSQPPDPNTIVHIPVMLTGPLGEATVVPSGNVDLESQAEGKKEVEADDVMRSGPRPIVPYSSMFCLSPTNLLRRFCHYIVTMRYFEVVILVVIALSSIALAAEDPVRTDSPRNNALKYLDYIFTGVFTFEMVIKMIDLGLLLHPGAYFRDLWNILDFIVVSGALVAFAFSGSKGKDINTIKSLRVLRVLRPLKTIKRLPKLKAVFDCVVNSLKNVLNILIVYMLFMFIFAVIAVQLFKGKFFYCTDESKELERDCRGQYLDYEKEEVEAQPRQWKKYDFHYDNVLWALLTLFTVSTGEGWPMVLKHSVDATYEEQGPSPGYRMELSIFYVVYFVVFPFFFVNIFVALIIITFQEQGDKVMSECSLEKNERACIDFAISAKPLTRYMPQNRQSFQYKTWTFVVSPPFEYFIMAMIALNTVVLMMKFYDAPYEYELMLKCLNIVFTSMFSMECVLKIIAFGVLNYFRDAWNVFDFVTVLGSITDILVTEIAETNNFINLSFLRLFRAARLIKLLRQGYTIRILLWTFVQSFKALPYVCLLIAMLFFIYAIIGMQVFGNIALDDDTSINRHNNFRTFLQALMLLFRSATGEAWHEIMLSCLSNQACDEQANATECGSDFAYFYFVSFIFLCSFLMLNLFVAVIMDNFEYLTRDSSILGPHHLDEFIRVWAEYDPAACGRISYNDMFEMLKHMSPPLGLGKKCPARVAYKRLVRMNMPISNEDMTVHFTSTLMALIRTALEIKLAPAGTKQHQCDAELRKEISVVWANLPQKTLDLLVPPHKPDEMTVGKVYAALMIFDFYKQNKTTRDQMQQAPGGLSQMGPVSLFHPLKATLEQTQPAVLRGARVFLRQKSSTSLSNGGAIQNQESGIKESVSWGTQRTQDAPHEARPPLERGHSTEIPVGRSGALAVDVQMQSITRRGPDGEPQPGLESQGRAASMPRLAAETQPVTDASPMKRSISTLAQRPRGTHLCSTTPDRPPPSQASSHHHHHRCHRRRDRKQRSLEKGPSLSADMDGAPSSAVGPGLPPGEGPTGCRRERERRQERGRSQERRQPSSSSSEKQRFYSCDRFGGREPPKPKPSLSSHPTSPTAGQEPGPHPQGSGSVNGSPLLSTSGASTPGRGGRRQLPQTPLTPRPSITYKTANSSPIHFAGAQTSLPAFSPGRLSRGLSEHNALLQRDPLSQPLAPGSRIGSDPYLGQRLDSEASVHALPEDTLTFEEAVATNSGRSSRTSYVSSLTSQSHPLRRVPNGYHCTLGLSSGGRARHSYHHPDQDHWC
# Sequence (P54289 25-956 partner limits assumed): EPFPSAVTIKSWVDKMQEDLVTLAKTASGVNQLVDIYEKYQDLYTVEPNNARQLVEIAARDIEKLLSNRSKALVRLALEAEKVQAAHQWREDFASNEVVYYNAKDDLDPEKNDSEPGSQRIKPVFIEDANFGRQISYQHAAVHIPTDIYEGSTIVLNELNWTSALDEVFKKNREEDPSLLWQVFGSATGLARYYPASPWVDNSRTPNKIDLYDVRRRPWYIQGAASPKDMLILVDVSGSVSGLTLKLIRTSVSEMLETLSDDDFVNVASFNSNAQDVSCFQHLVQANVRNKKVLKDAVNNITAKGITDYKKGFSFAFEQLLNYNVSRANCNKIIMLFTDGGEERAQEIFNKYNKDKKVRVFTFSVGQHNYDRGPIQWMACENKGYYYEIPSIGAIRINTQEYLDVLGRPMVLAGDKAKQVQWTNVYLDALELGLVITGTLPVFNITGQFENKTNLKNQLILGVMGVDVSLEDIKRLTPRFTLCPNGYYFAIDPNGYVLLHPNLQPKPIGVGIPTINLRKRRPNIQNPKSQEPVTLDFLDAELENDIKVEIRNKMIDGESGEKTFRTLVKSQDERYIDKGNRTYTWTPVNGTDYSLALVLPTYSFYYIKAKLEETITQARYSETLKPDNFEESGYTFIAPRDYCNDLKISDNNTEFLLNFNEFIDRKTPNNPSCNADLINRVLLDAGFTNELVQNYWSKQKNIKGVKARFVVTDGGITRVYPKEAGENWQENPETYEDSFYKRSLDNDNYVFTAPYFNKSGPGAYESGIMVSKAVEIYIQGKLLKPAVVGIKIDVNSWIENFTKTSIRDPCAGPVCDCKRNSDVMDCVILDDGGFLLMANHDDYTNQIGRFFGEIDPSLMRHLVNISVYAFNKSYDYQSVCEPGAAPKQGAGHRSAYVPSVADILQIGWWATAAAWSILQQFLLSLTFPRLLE
# Sequence (P54289 957-1103 partner limits assumed): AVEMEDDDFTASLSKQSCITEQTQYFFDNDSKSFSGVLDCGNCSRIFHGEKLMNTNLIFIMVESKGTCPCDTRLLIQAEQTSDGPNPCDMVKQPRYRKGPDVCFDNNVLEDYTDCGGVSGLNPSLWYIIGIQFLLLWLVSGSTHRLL
# Sequence (P54284 whole entry partner): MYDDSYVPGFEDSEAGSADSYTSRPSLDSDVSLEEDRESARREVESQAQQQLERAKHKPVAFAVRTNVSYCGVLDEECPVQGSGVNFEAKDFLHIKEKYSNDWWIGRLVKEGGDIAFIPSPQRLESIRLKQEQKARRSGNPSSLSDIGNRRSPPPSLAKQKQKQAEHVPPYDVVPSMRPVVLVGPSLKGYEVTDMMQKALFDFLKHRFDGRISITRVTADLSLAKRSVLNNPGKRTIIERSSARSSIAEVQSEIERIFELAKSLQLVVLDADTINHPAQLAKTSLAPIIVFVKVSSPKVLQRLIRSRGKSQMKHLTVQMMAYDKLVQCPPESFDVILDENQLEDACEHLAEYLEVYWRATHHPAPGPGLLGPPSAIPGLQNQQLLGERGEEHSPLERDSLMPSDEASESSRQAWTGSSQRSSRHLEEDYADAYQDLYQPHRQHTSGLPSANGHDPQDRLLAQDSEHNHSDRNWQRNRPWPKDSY
# assay: Assessment of calcium channel activity using FLIPR (Ca2+ influx in IMR32 cells)
# condition_info: IMR32 cells endogenously expressing human Cav2.2, Calcium 4 dye, 60 minute pre-incubation, 2 μM nifedipine, depolarized with 80 mM KCl, 5 mM CaCl2
experimental_endpoint: pIC50
In textbook form, pIC50 equals minus log to base ten of the concentration in mol/L.

q: Can you look up pIC50 on human Cav2.2 (Homo sapiens, UniProt Q00975) for O[C@H]1[C@H]2CN(c3cccc(C(F)(F)F)n3)C[C@H]2C[C@@H]1n1ccnc1 ?
a: 5.04

q: Can you look up pIC50 on human Cav2.2 (Homo sapiens, UniProt Q00975) for CCO[C@H]1CC[C@@H]2CN(c3cccc(C(F)(F)F)n3)C[C@@H]21 ?
a: 5.48

q: Can you look up pIC50 on human Cav2.2 (Homo sapiens, UniProt Q00975) for O[C@]1(c2ccccc2)CC[C@@H]2CN(c3cccc(C(F)(F)F)n3)C[C@@H]21 ?
a: 5.54

q: Can you look up pIC50 on human Cav2.2 (Homo sapiens, UniProt Q00975) for CC(C)(C)O[C@H]1CC[C@@H]2CN(c3cccc(C(F)(F)F)n3)C[C@@H]21 ?
a: 5.60

---

# target_desc: human Cav2.2 (Homo sapiens)
# Construct: IMR32 cells endogenously expressing human Cav2.2; endogenous in cells
# assay: Assessment of calcium channel activity using FLIPR (Ca2+ influx in IMR32 cells)
# condition_info: IMR32 cells endogenously expressing human Cav2.2, Calcium 4 dye, 60 minute pre-incubation, 2 μM nifedipine, depolarized with 80 mM KCl, 5 mM CaCl2
For each record, write down the corresponding pIC50.
In textbook form, pIC50 equals minus log to base ten of the concentration in mol/L.

q: Sample CC(C)O[C@H]1CC[C@@H]2CN(c3cccc(C(F)(F)F)n3)C[C@@H]21 [Example 42] — what was its pIC50?
a: 5.42

q: Sample O[C@]1(Cc2ccc(F)c(F)c2)CC[C@@H]2CN(c3cccc(C(F)(F)F)n3)C[C@@H]21 [Example 37] — what was its pIC50?
a: 5.43

q: Sample CCN[C@@]1(C)CC[C@@H]2CN(c3cccc(C(F)(F)F)n3)C[C@@H]21 [Example 23] — what was its pIC50?
a: 5.75

q: Sample FC(F)(F)c1cccc(N2C[C@H]3CC[C@H](OC[C@@H]4CCCN4)[C@H]3C2)n1 [Example 53] — what was its pIC50?
a: 6.18

q: Sample C[C@]1(NC(=O)c2cccc(F)c2)CC[C@@H]2CN(c3cccc(C(F)(F)F)n3)C[C@@H]21 [Example 19] — what was its pIC50?
a: 5.74

q: Sample C[C@@]1(NCc2cccc(F)c2)CC[C@@H]2CN(c3cccc(C(F)(F)F)n3)C[C@@H]21 [Example 24] — what was its pIC50?
a: 6.48

q: Sample O[C@]1(c2cccc(F)c2)CC[C@@H]2CN(c3cccc(C(F)(F)F)n3)C[C@@H]21 [Example 36] — what was its pIC50?
a: 5.21

q: Sample CO[C@H]1CC[C@@H]2CN(c3cccc(C(F)(F)F)n3)C[C@@H]21 [Example 40] — what was its pIC50?
a: 5.47

q: Sample C[C@]1(NCc2cccc(F)c2)CC[C@@H]2CN(c3cccc(C(F)(F)F)n3)C[C@@H]21 [Example 25] — what was its pIC50?
a: 6.74

q: Sample C[C@]1(NC(=O)c2cccc(F)c2)CC[C@@H]2CN(Cc3ccccc3)C[C@@H]21 [Example 7] — what was its pIC50?
a: 5.29

q: Sample FC(F)(F)c1cccc(N2C[C@H]3CC[C@H](n4ccnc4-c4ccccc4)[C@H]3C2)n1 [Example 62] — what was its pIC50?
a: 5.99

q: Sample C[C@@]1(NC(=O)c2cccc(F)c2)CC[C@@H]2CN(Cc3ccccc3)C[C@@H]21 [Example 6] — what was its pIC50?
a: 4.75

q: Sample Cc1ccn([C@H]2CC[C@@H]3CN(c4cccc(C(F)(F)F)n4)C[C@@H]32)n1 [Example 66] — what was its pIC50?
a: 5.24

q: Sample CC(=O)N[C@@]1(C)CC[C@@H]2CN(c3cccc(C(F)(F)F)n3)C[C@@H]21 [Example 17] — what was its pIC50?
a: 5.49

q: Sample FC(F)(F)c1cccc(N2C[C@H]3CC[C@H](n4cnc(-c5ccc(Cl)cc5)c4)[C@H]3C2)n1 [Example 57] — what was its pIC50?
a: 5.24

q: Sample Fc1cccc(O[C@H]2CC[C@@H]3CN(c4cccc(C(F)(F)F)n4)C[C@@H]32)c1 [Example 44] — what was its pIC50?
a: 5.22

q: Sample C[C@@]1(N)CC[C@@H]2CN(c3cccc(C(F)(F)F)n3)C[C@@H]21 [Example 26] — what was its pIC50?
a: 5.44

q: Sample FC(F)(F)c1cccc(N2C[C@H]3CC[C@H](n4ncc5ccccc54)[C@H]3C2)n1 [Example 65] — what was its pIC50?
a: 5.31

q: Sample C[C@@]1(NC(=O)c2cccc(F)c2)CC[C@@H]2CN(c3cccc(C(F)(F)F)n3)C[C@@H]21 [Example 18] — what was its pIC50?
a: 5.82

q: Sample FC(F)(F)c1cccc(N2C[C@H]3CC[C@H](n4cc(Cl)cn4)[C@H]3C2)n1 [Example 52] — what was its pIC50?
a: 5.13

---

# target_desc: human Cav2.2 (Homo sapiens, UniProt Q00975)
# Construct: IMR32 cells endogenously expressing human Cav2.2; endogenous in cells
# assay: Assessment of calcium channel activity using FLIPR (Ca2+ influx in IMR32 cells)
# condition_info: IMR32 cells endogenously expressing human Cav2.2, Calcium 4 dye, 60 minute pre-incubation, 2 μM nifedipine, depolarized with 80 mM KCl, 5 mM CaCl2
experimental_endpoint: pIC50
In textbook form, pIC50 equals minus log to base ten of the concentration in mol/L.

q: Sample FC(F)(F)c1cccc(N2C[C@H]3CC[C@H](n4ccnc4)[C@H]3C2)n1 — what was its pIC50?
a: 5.37

q: Sample C[C@]1(NC(=O)c2ccccc2)CC[C@@H]2CN(Cc3ccccc3)C[C@@H]21 — what was its pIC50?
a: 4.92

q: Sample C[C@]1(NC(=O)CCC(F)(F)F)CC[C@@H]2CN(c3cccc(C(F)(F)F)n3)C[C@@H]21 — what was its pIC50?
a: 5.94

q: Sample C[C@]1(NC(=O)[C@@H]2C[C@@H](F)CN2)CC[C@@H]2CN(c3cccc(C(F)(F)F)n3)C[C@@H]21 — what was its pIC50?
a: 5.51

q: Sample CCN[C@]1(C)CC[C@@H]2CN(c3cccc(C(F)(F)F)n3)C[C@@H]21 — what was its pIC50?
a: 5.23

q: Sample Cc1cnn([C@H]2CC[C@@H]3CN(c4cccc(C(F)(F)F)n4)C[C@@H]32)c1 — what was its pIC50?
a: 5.56

q: Sample CN[C@@H](CC(C)C)C(=O)N[C@@]1(C)CC[C@@H]2CN(c3cccc(C(F)(F)F)n3)C[C@@H]21 — what was its pIC50?
a: 6.11

q: Sample C[C@]1(NC(=O)c2ccccc2)CC[C@@H]2CN(c3cccc(C(F)(F)F)n3)C[C@@H]21 — what was its pIC50?
a: 5.60

q: Sample CC(=O)N[C@]1(C)CC[C@@H]2CN(c3cccc(C(F)(F)F)n3)C[C@@H]21 — what was its pIC50?
a: 5.19

q: Sample Fc1cccc(CO[C@H]2CC[C@@H]3CN(c4cccc(C(F)(F)F)n4)C[C@@H]32)c1 — what was its pIC50?
a: 5.09

q: Sample Fc1cccc2ncn([C@H]3CC[C@@H]4CN(c5cccc(C(F)(F)F)n5)C[C@@H]43)c12 — what was its pIC50?
a: 5.44

q: Sample C[C@@]1(NC(=O)c2ccccc2)CC[C@@H]2CN(Cc3ccccc3)C[C@@H]21 — what was its pIC50?
a: 4.94

q: Sample O=C1CC[C@@H]2CN(c3cccc(C(F)(F)F)n3)C[C@H]12 — what was its pIC50?
a: 4.67

q: Sample O[C@@H]1CC[C@@H]2CN(c3cccc(C(F)(F)F)n3)C[C@@H]21 — what was its pIC50?
a: 4.80

q: Sample FC(F)(F)c1cccc(N2C[C@H]3CC[C@H](n4cnc(-c5ccccc5)c4)[C@H]3C2)n1 — what was its pIC50?
a: 5.50

q: Sample Cc1cn([C@H]2CC[C@@H]3CN(c4cccc(C(F)(F)F)n4)C[C@@H]32)cn1 — what was its pIC50?
a: 5.36

q: Sample C[C@]1(NCc2ccccc2)CC[C@@H]2CN(c3cccc(C(F)(F)F)n3)C[C@@H]21 — what was its pIC50?
a: 6.42

q: Sample O=C(Nc1cccc(F)c1)[C@H]1CC[C@@H]2CN(c3cccc(C(F)(F)F)n3)C[C@@H]21 — what was its pIC50?
a: 5.05

q: Sample Fc1cccc(CCO[C@H]2CC[C@@H]3CN(c4cccc(C(F)(F)F)n4)C[C@@H]32)c1 — what was its pIC50?
a: 5.08

q: Sample Cc1nccn1[C@H]1CC[C@@H]2CN(c3cccc(C(F)(F)F)n3)C[C@@H]21 — what was its pIC50?
a: 5.45

q: Sample C=C1CC[C@@H]2CN(c3cccc(C(F)(F)F)n3)C[C@H]12 — what was its pIC50?
a: 4.60

q: Sample FC(F)(F)c1cccc(N2C[C@H]3CC[C@H](n4cccn4)[C@H]3C2)n1 — what was its pIC50?
a: 5.86

q: Sample C[C@@]1(NC(=O)c2ccccc2)CC[C@@H]2CN(c3cccc(C(F)(F)F)n3)C[C@@H]21 — what was its pIC50?
a: 5.67

q: Sample O[C@H]1CC[C@@H]2CN(c3cccc(C(F)(F)F)n3)C[C@@H]21 — what was its pIC50?
a: 5.02

q: Sample CC(c1cccc(F)c1)[C@@]1(O)CC[C@@H]2CN(c3cccc(C(F)(F)F)n3)C[C@@H]21 (stereo partly drawn) — what was its pIC50?
a: 5.21

q: Sample C[C@@]1(NCc2ccccc2)CC[C@@H]2CN(c3cccc(C(F)(F)F)n3)C[C@@H]21 — what was its pIC50?
a: 5.99

q: Sample Fc1cccc(O[C@H]2CC[C@@H]3CN(Cc4ccccc4)C[C@@H]32)c1 — what was its pIC50?
a: 5.53

q: Sample C[C@@]1(NC(=O)c2ccccc2)CC[C@@H]2CNC[C@@H]21 — what was its pIC50?
a: 4.58

q: Sample C[C@]1(N)CC[C@@H]2CN(c3cccc(C(F)(F)F)n3)C[C@@H]21 — what was its pIC50?
a: 5.74

q: Sample CC(C)(C)OC(=O)N1C[C@H]2CC[C@H](C(=O)Nc3cccc(F)c3)[C@H]2C1 — what was its pIC50?
a: 4.93

q: Sample O[C@]1(c2ccccc2)CC[C@@H]2CN(Cc3ccccc3)C[C@@H]21 — what was its pIC50?
a: 5.05

Just for reference, patent US8796470B2 is where these values come from.
